For each entry below, report its binding (percent of control) value.
# experimentalTarget: Desmoglein-3 (Homo sapiens) (UniProt P32926)
# Sequence (P32926 whole entry, looked up, the tested form may be a part): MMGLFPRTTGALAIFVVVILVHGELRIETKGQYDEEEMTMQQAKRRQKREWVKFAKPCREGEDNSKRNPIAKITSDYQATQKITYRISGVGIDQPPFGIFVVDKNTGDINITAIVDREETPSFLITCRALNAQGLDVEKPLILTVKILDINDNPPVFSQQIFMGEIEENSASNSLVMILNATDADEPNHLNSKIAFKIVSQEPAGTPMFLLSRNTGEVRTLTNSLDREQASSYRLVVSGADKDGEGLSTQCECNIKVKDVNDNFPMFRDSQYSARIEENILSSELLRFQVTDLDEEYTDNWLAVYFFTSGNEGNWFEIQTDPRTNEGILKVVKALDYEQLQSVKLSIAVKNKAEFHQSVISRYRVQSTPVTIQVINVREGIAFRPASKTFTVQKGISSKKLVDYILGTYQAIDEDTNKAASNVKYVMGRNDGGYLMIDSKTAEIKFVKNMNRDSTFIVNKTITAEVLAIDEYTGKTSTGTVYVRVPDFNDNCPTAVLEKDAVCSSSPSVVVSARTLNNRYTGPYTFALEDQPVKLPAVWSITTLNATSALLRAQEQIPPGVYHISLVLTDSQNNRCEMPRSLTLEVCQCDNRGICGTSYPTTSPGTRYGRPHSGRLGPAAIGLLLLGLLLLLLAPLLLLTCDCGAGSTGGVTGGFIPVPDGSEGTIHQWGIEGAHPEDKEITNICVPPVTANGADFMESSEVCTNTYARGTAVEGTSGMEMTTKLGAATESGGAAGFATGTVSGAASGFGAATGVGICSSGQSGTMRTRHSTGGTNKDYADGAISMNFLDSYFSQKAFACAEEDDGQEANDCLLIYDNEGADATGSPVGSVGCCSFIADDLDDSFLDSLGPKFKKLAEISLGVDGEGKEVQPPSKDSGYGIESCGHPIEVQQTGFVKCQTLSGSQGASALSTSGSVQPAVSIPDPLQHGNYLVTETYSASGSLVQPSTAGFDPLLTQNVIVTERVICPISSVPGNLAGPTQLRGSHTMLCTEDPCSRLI
# assayProcedure: blockers of anti-DSG3 scFv binding – biochemical, bead-based, flow cytometry, scFv-GFP, primary screen (AID 588358);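 note: hits lower antibody fragment binding to DSG3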
# setupConditions: DSG3-coupled beads, at 10 µM, active compounds read low
Hit rate of the full screen: of about 310,000 compounds, about 1,500 (0.48%) were called active. Many of the other results were omitted from the sample, so actives are more common in it than they were.
Answers are plain numbers, in %.

Look over these answered cases.
COc1cc(NC(=O)C2=C(C)OCCS2)c(Cl)cc1C(=O)NCCCN1CCCC(C)C1 (configuration not stated) = 105
CCOc1ccc(Cn2nnc(C(=O)Nc3ccc(OC)cc3OC)c2N)cc1 = 81.7
O=C(NCc1nnnn1-c1ccc(Cl)cc1)c1ccc([N+](=O)[O-])o1 = 98.8

Please look at the items below and tell me binding (percent of control) for each one, in order.
1. CCC(=O)Nc1ccc(C(=O)NNC(=O)c2ccc(Cl)cc2)cc1
2. COc1ccc(NC(=O)Cn2nnc(C(=O)NCCc3ccc(OC)c(OC)c3)c2N)cc1
3. Cc1cccc(N2CCN(S(=O)(=O)c3ccc(-c4cc(C)no4)s3)CC2C)c1 (configuration not stated)
4. Cc1ccc(Cc2c(-c3ccc(C)cc3)nc3c4ccccc4ccn23)cc1

Response:
103
103
96.5
109

* * *

# experimentalTarget: Desmoglein-3 (Homo sapiens) (UniProt P32926)
# assayProcedure: blockers of anti-DSG3 scFv binding – biochemical, bead-based, flow cytometry, scFv-GFP, primary screen (AID 588358);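 note: hits lower antibody fragment binding to DSG3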
# setupConditions: DSG3-coupled beads, at 10 µM
In all, about 310,000 compounds went through this assay and about 1,500 (0.48%) were called active.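 How the source made its calls: active means binding more than 3 SD below its plate's average and above zero; inconclusive means below that plate limit but binding exactly zero; inactive means the rest.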 For the sample, actives were picked, then their nearest neighbours and some compounds at random.
Entry note: the call must match one of active, inactive

Here are 4 compounds together with their reported answers.
CCC(Oc1ccccc1)C(=O)OCC(=O)Nc1c(C)nn(-c2ccccc2)c1C (stereo not given) = inactive
Cc1ccccc1OS(=O)(=O)c1cccc([N+](=O)[O-])c1 = inactive
C[C@H]1Cn2cnc(C(=O)N[C@@H](Cc3c[nH]c4ccccc34)C(=O)OC(C)(C)C)c2C(=O)N1 = inactive
COc1ccc(-c2cn3ccsc3n2)cc1 = inactive

Now, please, on to the next compound.
Query: For CC(=O)Nc1ccc(NC(=O)CSc2ncnc3c2cnn3Cc2ccccc2)cc1 , which call appears in the assay record?
Response: active

* * *

# experimentalTarget: Desmoglein-3 (Homo sapiens)
# assayProcedure: blockers of anti-DSG3 scFv binding – biochemical, bead-based, flow cytometry, scFv-GFP, primary screen (AID 588358);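 note: hits lower antibody fragment binding to DSG3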
# setupConditions: DSG3-coupled beads, at 10 µM, active compounds read low
Among all 310,000 compounds or so, about 1,500 (0.48%) were called active. This excerpt belongs to a sample that is enriched for actives.
valueKind: binding (percent of control) (%)
Numbers only, in %.

CCOc1ccc(CNC(=O)CCC(=O)N2CCSc3ccccc32)cc1 = 102
Cc1ccc(NC(=O)CN2CCc3ccccc3C2)cc1 = 95.1
CN(C)c1ccc(CSc2ccccc2)cc1 = -6.16

Please look at the items below and tell me binding (percent of control) for each one, in order.
1. COc1ccc(S(=O)(=O)N(C)C)cc1NC(=O)COC(=O)c1n[nH]c2ccccc12
2. CSc1ncccc1C(=O)N1CCCC(Nc2ccc(F)c(F)c2)C1 (configuration not stated)
3. COc1ccc(NC(=O)CS(=O)(=O)c2ccccc2)cc1

Response:
1: 98.8; 2: 104; 3: 103

Query: What binding (percent of control) appears in the records for this compound with Desmoglein-3 (Homo sapiens)? Cc1ccc2[nH]c3c(=O)n(Cc4ccccn4)cnc3c2c1
Response: 108

* * *

# experimentalTarget: Desmoglein-3 (Homo sapiens) (UniProt P32926)
# assayProcedure: blockers of anti-DSG3 scFv binding – biochemical, bead-based, flow cytometry, scFv-GFP, primary screen (AID 588358);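 note: hits lower antibody fragment binding to DSG3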
# setupConditions: DSG3-coupled beads, at 10 µM
About 1,500 (0.48%) of roughly 310,000 compounds were called active.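 How the source made its calls: active means binding more than 3 SD below its plate's average and above zero; inconclusive means below that plate limit but binding exactly zero; inactive means the rest.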 For the sample, actives were picked, then their nearest neighbours and some compounds at random.
Entry note: the call must match one of active, inactive

COc1ccccc1C(=O)NC(=S)Nc1ccc(N2CCOCC2)cc1 = inactive
Cc1ccc(-c2ccc(/C=N/NC(=O)CN3CCOCC3)o2)cc1[N+](=O)[O-] = inactive
CCCCN1C(=O)C(CC(=O)NC(c2ccccc2)c2ccccc2)CC(C(=O)N2CCOCC2)=C1C (stereo not given) = inactive
O=S1(=O)CCN(Cc2ccccc2)CC1 = inactive

Query: For Cc1nnc(SCC(=O)Nn2cnnc2)s1 , which call appears in the assay record?
Response: active
